- Target Of Assay: recombinant sEH (Homo sapiens)
- Sequence (P34913 1-555): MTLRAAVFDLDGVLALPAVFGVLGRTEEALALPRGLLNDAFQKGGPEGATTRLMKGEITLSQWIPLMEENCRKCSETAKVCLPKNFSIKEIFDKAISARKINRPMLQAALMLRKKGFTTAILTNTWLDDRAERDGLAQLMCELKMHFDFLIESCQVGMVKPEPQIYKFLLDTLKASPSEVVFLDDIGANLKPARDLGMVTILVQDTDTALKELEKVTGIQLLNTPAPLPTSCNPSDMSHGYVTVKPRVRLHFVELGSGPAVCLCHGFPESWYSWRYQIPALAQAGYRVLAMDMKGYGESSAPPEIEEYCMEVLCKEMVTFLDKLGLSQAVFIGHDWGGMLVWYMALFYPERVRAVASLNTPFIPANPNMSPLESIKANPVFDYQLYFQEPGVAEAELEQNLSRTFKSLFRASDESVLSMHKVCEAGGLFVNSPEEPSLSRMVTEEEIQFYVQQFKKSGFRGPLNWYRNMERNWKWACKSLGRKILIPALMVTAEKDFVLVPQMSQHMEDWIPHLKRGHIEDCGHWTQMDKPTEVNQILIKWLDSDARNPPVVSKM
- Assay Info: biochemical screening assay for inhibition of soluble epoxide hydrolase (fluorometric, Phome substrate)
Measured Parameter: pIC50
# reply with the number alone; pIC50 is -log10 of concentration in mol/L

Molecule: O=C(N[C@H]1CO[C@H]2[C@@H]1OC[C@@H]2Oc1ccc(F)cc1)N[C@@H]1CCC[C@H]1OCc1ccccc1
Measured Parameter: pIC50
Reported Measurement: 8.70

Attention now turns to another entry.
## Task GET /values?readout=pIC50&item= Cc1ncccc1O[C@H]1CO[C@H]2[C@@H]1OC[C@@H]2NC(=O)NC1CC2CC1C1CCCC21 (stereo partly shown)
## Result 8.70

====

- Target Of Assay: recombinant sEH (Homo sapiens, UniProt P34913)
- Construct: made in house; host or cells: Sf9 insect cells
- Sequence (P34913 1-555): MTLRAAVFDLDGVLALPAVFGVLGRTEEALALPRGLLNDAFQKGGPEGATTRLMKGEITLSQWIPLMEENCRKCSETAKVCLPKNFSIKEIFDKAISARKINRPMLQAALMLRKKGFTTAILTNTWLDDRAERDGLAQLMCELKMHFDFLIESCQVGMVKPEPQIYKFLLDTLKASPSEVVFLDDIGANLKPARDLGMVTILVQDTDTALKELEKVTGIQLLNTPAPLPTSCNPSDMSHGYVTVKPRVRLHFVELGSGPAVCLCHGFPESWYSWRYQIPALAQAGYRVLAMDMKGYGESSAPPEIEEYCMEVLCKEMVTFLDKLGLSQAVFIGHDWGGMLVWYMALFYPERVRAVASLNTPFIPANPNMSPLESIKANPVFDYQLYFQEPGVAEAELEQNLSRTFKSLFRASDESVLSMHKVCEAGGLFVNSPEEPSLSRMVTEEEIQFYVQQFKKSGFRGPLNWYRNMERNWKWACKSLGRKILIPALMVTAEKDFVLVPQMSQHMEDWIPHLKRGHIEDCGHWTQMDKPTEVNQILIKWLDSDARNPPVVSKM
- Assay Info: biochemical screening assay for inhibition of soluble epoxide hydrolase (fluorometric, Phome substrate)
The label fulfilled is reserved for IC50 strictly under 20 nM; not fulfilled covers values equal to or above it.

Please review the following examples before continuing.
Compound: N#CCc1cccc(O[C@H]2CO[C@H]3[C@@H]2OC[C@@H]3NC(=O)NC2CCCCC2)c1 [Example 117]
Target Of Assay: recombinant sEH (Homo sapiens, UniProt P34913)
Label Class: fulfilled

Compound: O=C(NC1CCCCC1)N[C@H]1CO[C@H]2[C@@H]1OC[C@@H]2Oc1ccc(C(=O)N2CCOCC2)cc1 [Example 120]
Target Of Assay: recombinant sEH (Homo sapiens, UniProt P34913)
Label Class: fulfilled

Compound: O=C(NCCc1cccs1)N[C@H]1CO[C@H]2[C@@H]1OC[C@@H]2/C=C\c1ccccc1 [Example 330]
Target Of Assay: recombinant sEH (Homo sapiens, UniProt P34913)
Label Class: not fulfilled

Compound: Cc1ncccc1O[C@H]1CO[C@H]2[C@@H]1OC[C@@H]2NC(=O)NCc1cc(F)ccc1OC(F)(F)F [Example 279]
Target Of Assay: recombinant sEH (Homo sapiens, UniProt P34913)
Label Class: fulfilled

Compound: O=C(Nc1cccc(C(F)(F)F)c1)N[C@H]1CO[C@@H]2[C@@H](CCc3ccccc3)CO[C@@H]21 [Example 368]
Target Of Assay: recombinant sEH (Homo sapiens, UniProt P34913)
Label Class: not fulfilled

Compound: O=C(Nc1ccc(OC(F)(F)F)cc1)N[C@H]1CO[C@@H]2[C@@H](CCc3ccsc3)CO[C@@H]21 [Example 374]
Target Of Assay: recombinant sEH (Homo sapiens, UniProt P34913)
Label Class: not fulfilled

Compound: O=C(Nc1ccc2c(c1)OCO2)N[C@H]1CO[C@H]2[C@@H]1OC[C@@H]2C#Cc1ccccc1 [Example 293]
Target Of Assay: recombinant sEH (Homo sapiens, UniProt P34913)
Label Class: not fulfilled

Compound: Cc1ncccc1O[C@H]1CO[C@H]2[C@@H]1OC[C@@H]2NC(=O)NC1CCCN(C(=O)c2ccc(F)cc2)C1 (stereo partly shown) [Example 83]
Target Of Assay: recombinant sEH (Homo sapiens, UniProt P34913)
Label Class: not fulfilled

Compound: O=C(NCCc1ccccc1)N[C@H]1CO[C@H]2[C@@H]1OC[C@@H]2C#Cc1ccsc1 [Example 314]
Target Of Assay: recombinant sEH (Homo sapiens, UniProt P34913)
Label Class: not fulfilled

Compound: Cc1ncccc1O[C@H]1CO[C@H]2[C@@H]1OC[C@@H]2NC(=O)NC1CC(C)CC(C)(C)C1 (stereo partly shown) [Example 256]
Target Of Assay: recombinant sEH (Homo sapiens, UniProt P34913)
Label Class: fulfilled

## Task For this compound, is IC50 lower than 20 nM? COCC(NC(=O)N[C@H]1CO[C@H]2[C@@H]1OC[C@@H]2Oc1cccnc1C)c1ccnn1C (stereo partly shown) [Example 211]
## Result not fulfilled

## Task Check O=C(Nc1ccc(F)cc1)NC1COC2C(C#Cc3ccccc3)COC12 (stereo not shown) [Example 292] too.
## Result not fulfilled

## Task Check O=C(NC1CCCCC1)N[C@H]1CO[C@H]2[C@@H]1OC[C@@H]2Oc1ccccc1Cl [Example 98] too.
## Result fulfilled

## Task Check O=C(NC1CCCCC1)N[C@H]1CO[C@H]2[C@@H]1OC[C@@H]2Oc1ccc2cc(Br)ccc2c1 [Example 99] too.
## Result fulfilled

## Task Check Cc1ncccc1O[C@H]1CO[C@H]2[C@@H]1OC[C@@H]2NC(=O)NCC1CCC(=O)N1 (stereo partly shown) [Example 201] too.
## Result not fulfilled

## Task Check CCCCOc1ccc(NC(=O)NC2COC3C(C=Cc4ccccc4)COC23)cc1 (stereo not shown) [Example 320] too.
## Result not fulfilled

## Task Check O=C(NC1CCCCC1)N[C@H]1CO[C@H]2[C@@H]1OC[C@@H]2OC(=O)N1CCOCC1 [Example 4] too.
## Result fulfilled

## Task Check C[C@@H](NC(=O)N[C@H]1CO[C@H]2[C@@H]1OC[C@@H]2Oc1ccc(F)cc1)c1ccc(F)cc1 [Example 159] too.
## Result fulfilled

## Task Check Cc1cccnc1CCNC(=O)N[C@H]1CO[C@H]2[C@@H]1OC[C@@H]2Oc1cccnc1C [Example 205] too.
## Result not fulfilled

## Task Check O=C(NC1CCCCC1)N[C@H]1CO[C@H]2[C@@H]1OC[C@@H]2Oc1ccc2c(c1)C(=O)CC2 [Example 118] too.
## Result fulfilled

## Task Check O=C(Nc1cccc(C(F)(F)F)c1)N[C@H]1CO[C@H]2[C@@H]1OC[C@@H]2/C=C\c1ccccc1 [Example 333] too.
## Result not fulfilled

## Task Check O=C(NC1CCCCC1)N[C@H]1CO[C@H]2[C@@H]1OC[C@@H]2SCCO [Example 14] too.
## Result fulfilled

## Task Check COc1cc(NC(=O)NC2COC3C(C=Cc4ccsc4)COC23)cc(OC)c1 (stereo not shown) [Example 335] too.
## Result not fulfilled

## Task Check O=C(NC1CCCCC1)N[C@H]1CO[C@H]2[C@@H]1OC[C@@H]2Oc1ccc(C(=O)O)cc1 [Example 11] too.
## Result fulfilled

## Task Check O=C(NC1CCCCC1)N[C@H]1CO[C@H]2[C@@H]1OC[C@@H]2Oc1ccccc1CNCC1CCCO1 (stereo partly shown) [Example 136] too.
## Result not fulfilled

## Task Check Cc1ccc(O[C@H]2CO[C@H]3[C@@H]2OC[C@@H]3NC(=O)NC2CCCCC2)cn1 [Example 28] too.
## Result fulfilled

## Task Check O=C(NC1CCCCC1)N[C@H]1CO[C@H]2[C@@H]1OC[C@@H]2Oc1ccc(N2CCOCC2)nc1 [Example 73] too.
## Result fulfilled

The reported numbers originate from patent US9540391B2.
